Taken from PubChem BioAssay (NCI).

# growth per entry
System: SF-268 CNS
ASSAY REMARKS: NCI-60 one-dose screen, 48 h (100 = growth as untreated, 0 = no growth, -100 = all killed)
TEST CONDITIONS: 10 µM unless noted
Experimental: Cells are grown in 96 well plates and exposed to the test compound for 48 hours. Compounds are tested at a single concentration, which is 10^-5 M for most compounds. The reported endpoint is percent growth (GI% or GIPRCNT), where numbers from 0 - 100% represent growth inhibition, and numbers from -100% - 0 represent cell death. For example, a value of 40 represents 60% growth inhibition. A value of 0 means no net growth occurred over the course of the experiment. […]
About 83,000 compounds went through this panel and 20% of them were active in at least one assay; those are over-represented in the sample as a whole.
# number only, unit % dropped from output

Below, each entry is followed by its recorded growth result.
CCOC(=O)Nc1ccc2c(ccn2C(=O)c2cccc(F)c2)c1: 65.8
O=c1c2ccccc2cc2n1CCN=C2c1ccccc1: 97.2
Cc1ccccc1N1CCN(C2=C(Cl)C(=O)c3ncccc3C2=O)CC1: 80.2
NC1C2CCC1CN(c1cnc(C(=O)Nc3cc(F)cc4cccnc34)cn1)C2 (stereo not given): 73.5
O=C1CSC(c2cn(-c3ccccc3)nc2-c2ccc(Cl)cc2)N1c1ccccc1 (stereo not given): 109
COc1cc(NC(=O)Nc2cccc(-c3cc(=O)c4c(OC)c(OC)c(OC)cc4o3)c2)cc(OC)c1OC: 49.4
CCOP(=O)(OCC)OC[C@]12CCC(C)(C)CC1C1=CC[C@@H]3[C@@]4(C)CCCNC(C)(C)[C@@H]4CC[C@@]3(C)[C@]1(C)CC2 (stereo not given in full): 80.2
C=C1CCc2nc(SCC(=O)O)ccc2N1: 103
COc1cc(C(C)=C(c2ccc(OCCN(C)C)cc2)c2ccc(OCCN(C)C)cc2)ccc1F: 98.5

Attention now shifts to the item below.
Respond only with growth recorded for `Brc1ccc2[nH]cc(-c3nn4cc(-c5nccs5)nc4s3)c2c1`
31.7

###

Test system: PC-3 prostate
ASSAY REMARKS: NCI-60 one-dose screen, 48 h (100 = growth as untreated, 0 = no growth, -100 = all killed)
TEST CONDITIONS: 10 µM unless noted
This is part of a sample that, as a whole, favours compounds with a hit. Of some 83,000 tested, about 20% had one in any assay. Calls of active or inactive are those of the source. How the source made its calls: active means growth percent below 10; inactive means the rest.
# growth per entry

Cc1ccc(S(=O)(=O)NCCCNc2nc(Nc3ccc(N4CCN(C)CC4)cc3)nc3ccsc23)cc1: 63.5% (inactive)

Respond only with growth recorded for `C[C@H](Nc1ncnc2ccc(-c3cnc(Cl)c(NS(C)(=O)=O)c3)cc12)c1ccccc1`
2.25% (active)

Respond only with growth recorded for `Cc1cc(C)cc(NC2=C(Cl)C(=O)c3nc(C)ccc3C2=O)c1`
59.4% (inactive)

Respond only with growth recorded for Cc1[nH]c(C(=O)Nc2ccccc2OCc2cccc(C(=O)NC3CCNC3)c2)c(Cl)c1Cl (centres undefined)
59.1% (inactive)

Respond only with growth recorded for `CN(C)S(=O)(=O)c1ccc(-c2nc(C(Cl)Cl)nc3cc(-c4ccc(F)cc4)nn23)cc1`
26.7% (inactive)

Respond only with growth recorded for `O=C(CSc1nc2ccccc2c(=O)n1CCc1ccccc1)Nc1ccc(S(=O)(=O)Nc2ccc(Cl)nn2)cc1`
89.3% (inactive)
